// values below are reported viability
Experiment: growth inhibitors of H69AR lung tumor, primary screen, human, duplicate replicates (AID 580);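 note: 100% = mean luminescence of untreated wells and 0% = no signal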
Settings: H69AR lung tumor cells viability, ATP luminescence, 72 h; at 10 µM; stronger effect = lower value
Value expressed in %; do not type the unit.

Reference set, count: 3
# compound, viability / %
measured = [
    ("COc1cccc(NC(=O)COC(=O)c2ccco2)c1", 83.8),
    ("CCCCC(=O)Nc1nn(CCC)c2nc3ccccc3cc12", 96.1),
    ("CCc1ccc(NC(=O)CSc2nnc(Cc3cccn3C)n2-c2ccc(OC)cc2)cc1", 95.6),
]

// viability value for "CCOCCCNCC(=O)N1CCN(S(=O)(=O)c2ccc(C)cc2)CC1" : 101

Per the record, COc1ccc2nc(NC(=O)C(NS(=O)(=O)c3cccs3)C(C)C)sc2c1 (stereo not drawn) has viability of 92.7

The compound "C=CCOc1nc(N2CCCC2)nc(N2CCCC2)n1" showed viability equal to 92.7

Notebook: "CCOc1ccc2ccccc2c1C(=O)N1CCN(c2ccccc2)CC1" , viability read as 9.8

Lookup result for "COc1ccc2ccccc2c1CN1CCN(C)CC1" ; measured viability: 104

// sample "NC(=O)C1(N2CCCCC2)CCN(Cc2ccccc2Cl)CC1" , its viability was 83.8

// recorded viability for "C/C(N)=C(/C#N)C(=O)CSc1nnc(Nc2c(C)cccc2C)s1" : 103

viability recorded for this compound, C=CCN(C(=O)CNC(=O)c1ccco1)C(C(=O)NC1CCCCC1)c1ccccc1F (stereo not drawn) , is 100

----------
Test: SK-BR-3 cell growth inhibitors, pilot screen, 24 h, human (AID 572);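 note: compound exposure lasted between 18 and 24 h rather than exactly 24 h; 100% = carrier-treated control wells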
Settings: SK-BR-3 viability, CellTiter-Glo luminescence, at 10 µM, stronger effect = lower value
Measured viability accompanies every entry in the list below.
Just the number in %, nothing appended.

# compound, u, measuredNumber
measured = [
    ("COc1ccccc1N1CCN(C(=O)c2ccc(S(=O)(=O)N3CCCCCC3)cc2)CC1", "%", 89.5),
    ("COC(=O)CNC(=O)c1c(C)cc(=O)oc1C", "%", 89.5),
    ("CN1C(=S)SC(C)(NO)C1(C)C (stereo unspecified)", "%", 90),
    ("CC(=O)CCc1c(C)[nH]c2ccccc2c1=O", "%", 88.5),
]

// recorded viability for "COCCCN(C(C)=O)c1nc(-c2ccccc2)cs1" : 91

Query "COCCSc1ccccc1C(=O)Nc1cc(C)on1" yields viability of 91

----------
Test: reversal of MRP1-mediated doxorubicin resistance, pilot screen, H69AR cells, doxorubicin co-treatment (AID 601)
Conditions: H69AR cells, CellTiter-Glo, 72 h; compound alone cytotoxicity; at 10 µM
Measured viability, listed per entry for reference.
State the answer as a number, implicitly in %.

// solved cases for viability follow
# chemicalString, u, measuredNumber
rows = [
    ("O=C(O)COc1ccc2occ(C(=O)c3ccccc3)c2c1", "%", 93.9),
    ("Cc1cc(C)n(CCc2nc(-c3cccs3)cs2)n1", "%", 104),
    ("Cc1csc(NC(=O)c2ccco2)n1", "%", 83.3),
]

viability for "N#Cc1c(N)c(C(=O)c2ccccc2)n2c1CCCC2" is 93.1

----------
Experiment: growth suppression of yeast trafficking mutant, preliminary HTS, modulators of trafficking downstream of Golgi apparatus project, 1536-format plate, OD 615 nm (AID 637)
Conditions: yeast transport mutant growth, absorbance 615 nm, 18 h; stronger effect = higher value
assayMetric: inhibition (%)
All answers are understood in %, so give the number only.

Examples with their reported inhibition follow.
# molecule, u, inhibition
records = [
    ("COc1ccc(C(=O)N2CCN(c3nc4cc(C)ccc4cc3C#N)CC2)c(OC)c1", "%", -1.75),
    ("COC(=O)c1cc2oc(C)cc2n1CC(=O)Nc1ccc(C)c(C)c1", "%", -7),
    ("CCCc1[nH]nc2c1C(c1cccc(OC(=O)c3ccco3)c1)C(C#N)=C(N)O2 (stereo not given)", "%", -1.11),
    ("CN1C(=O)C(CC(=O)N2CCN(C(c3ccccc3)c3ccccc3)CC2)N(C)C1=O (stereo not given)", "%", -3.67),
    ("CCCC(C)C(=O)Nc1ccc(C(N)=O)cc1 (stereo not given)", "%", -1.33),
]

Lab note: measured inhibition of "CCOc1ccccc1NC(=O)CSc1c(C)n[nH]c1C" was -3.71

Record "Cc1nnc(SCc2cnc(-c3ccccc3)o2)[nH]c1=O" , field inhibition: -0.66
